# test target: T1, human ferroportin (SLC40A1) fused in frame with GFP, stably expressed in HEK293 cells (human, UniProt Q9NP59 1-571)
# T1 sequence (looked up): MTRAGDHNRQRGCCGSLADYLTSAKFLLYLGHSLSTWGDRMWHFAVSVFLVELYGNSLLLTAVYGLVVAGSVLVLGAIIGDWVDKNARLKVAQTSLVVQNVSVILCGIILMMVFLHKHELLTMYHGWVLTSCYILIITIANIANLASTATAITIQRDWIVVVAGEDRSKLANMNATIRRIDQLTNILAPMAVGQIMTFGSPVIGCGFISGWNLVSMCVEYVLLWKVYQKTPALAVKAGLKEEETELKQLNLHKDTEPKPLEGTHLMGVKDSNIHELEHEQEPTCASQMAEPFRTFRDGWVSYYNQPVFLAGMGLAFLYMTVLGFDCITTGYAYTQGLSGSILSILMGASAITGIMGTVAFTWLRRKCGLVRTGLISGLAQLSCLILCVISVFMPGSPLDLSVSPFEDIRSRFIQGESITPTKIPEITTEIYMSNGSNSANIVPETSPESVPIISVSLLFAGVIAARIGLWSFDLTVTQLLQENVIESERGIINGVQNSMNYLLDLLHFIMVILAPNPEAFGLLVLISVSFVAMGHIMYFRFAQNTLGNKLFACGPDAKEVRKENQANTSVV
# protocol description: cell-based or functional assay
* marks the point of attachment. Isovaleryl = CC(C)CC(=O)*
Here, each record is paired with measured Potency EC50 data.
Your answer is read as nM, so omit the unit and give the number.

Here are 2 binders together with their reported answers.
Isovaleryl-DTHFSCIIFGPRSKGWVCK-NH2 (not fully specified (bridges); cysteine pairing not given here) [Compound 107] ... 50
H-EDTHFPCIIFGPRSKGWVCM-NH2 (cysteine pairing not given here) [Compound 137] ... 873

# ---- query binder ----
State its Potency EC50 for this binder: H-DTHFPICIFGPRSKGWVCM-NH2 (not fully specified (bridges); cysteine pairing not given here) [Compound 18] 125
